biological target: S100A10^C82S-annexin A2 hybrid protein (A10A2) (rabbit | not stated); assay: ITC
pKd: −log10 of the molar value.

binder: Ac-GKVTFPKMKIPKFTFSGREL-NH2 [AHNAK5 peptide (AHNAK residues Gly5654-Leu5673)]
pKd: 7.55
